Recorded melting point values for a group of compounds are listed next.
Counter-ions that a name gives are not always drawn.

| compound | obsValue |
| --- | --- |
| O=C1Nc2ccc(F)c(F)c2[C@@](C#CC2CC2)(C(F)(F)F)O[C@H]1C1CC1 (relative stereo) | 222 to 222.5 °C |

// returns reported melting point for input C[C@@H]1O[C@](/C=C/c2ccco2)(C(F)(F)F)c2cc(Cl)ccc2NC1=O (relative stereo) 205 to 206.5 °C

What do we get for CC[C@@H]1O[C@](C#Cc2ccoc2)(C(F)(F)F)c2cc(Cl)ccc2NC1=O (relative stereo) (as salt: sodium) ? 169 to 170 °C

Subsequent entry: CC[C@@H]1O[C@](/C=C/C2CC2)(C(F)(F)F)c2cc(F)ccc2NC1=O (relative stereo) 148 to 149 °C

What do we get for CC[C@@H]1O[C@](/C=C/C2CC2)(C(F)(F)F)c2cc(Cl)ccc2NC1=O (relative stereo) ? 147 to 147.5 °C

Cool, now C[C@@H]1O[C@](/C=C/C2CC2)(C(F)(F)F)c2cc(F)ccc2NC1=O (relative stereo) 180 to 182 °C

Now this one: CC(C)/C=C/C1(C(F)(F)F)OCC(=O)Nc2ccc(Cl)cc21 (stereo not drawn) 148 to 149 °C

Now this one: O=C1Nc2ccc(Cl)cc2[C@@](/C=C/C2CC2)(C(F)(F)F)O[C@H]1C1CC1 (relative stereo) 143 to 144 °C

Now try CC(C)/C=C/C1(C(F)(F)F)OCC(=O)Nc2ccc(F)c(F)c21 (stereo not drawn) . 159 to 160 °C

---

assayReadout: melting point

Record excerpt, results attached:
| compound | melting point |
| --- | --- |
| C[C@@H]1O[C@](/C=C/C2CC2)(C(F)(F)F)c2cc(Cl)ccc2NC1=O (relative stereo) [Example 6] | 171 to 172 °C |
| C[C@@H]1O[C@](C#CC2CC2)(C(F)(F)F)c2cc(Cl)ccc2NC1=O | 145 to 146 °C |

What does the record list as melting point for O=C1COC(/C=C/C2CC2)(C(F)(F)F)c2cc(Cl)ccc2N1 (stereo not drawn) ? 157 to 158 °C
